test system: BaF3; assay: Antiproliferative activity against Lck transformed mouse BaF3 cells after 48 hrs by luciferase assay; type: functional, cell-based; conditions: BaF3, 48 h
Measured parameter: pIC50
Please report pIC50 as the negative decimal logarithm of the molar concentration, giving only the number.

Consider the worked cases shown below.
| Chemical structure | pIC50 |
| --- | --- |
| CCNC(=O)Nc1nc2ccc(C(=O)Nc3cc(NC(=O)c4cccc(C)c4)ccc3C)cc2s1 | 6.95 |
| Cc1ccc(NC(=O)c2cccc(C(F)(F)F)c2)cc1NC(=O)c1ccc2nc(NC(=O)Nc3ccccc3)sc2c1 | 7.03 |
| COc1ccc(OC(=O)Nc2nc3ccc(C(=O)Nc4cc(NC(=O)c5cccc(C(F)(F)F)c5)ccc4C)cc3s2)cc1 | 6.88 |
| CCNC(=O)Nc1nc2ccc(C(=O)Nc3cc(NC(=O)c4ccnc(C(C)(C)C)c4)ccc3C)cc2s1 | 8.05 |
| Cc1ccc(NC(=O)c2cccc(C(F)(F)F)c2)cc1NC(=O)c1ccc2nc(NCCCN(C)C)sc2c1 | 7.09 |
| Cc1ccc(NC(=O)c2cccc(C(F)(F)F)c2)cc1NC(=O)c1ccc2nc(NC(=O)Nc3cccnc3)sc2c1 | 6.90 |
| COC(=O)Nc1nc2ccc(C(=O)Nc3cc(NC(=O)c4cccc(C(F)(F)F)c4)ccc3C)cc2s1 | 7.52 |
| Cc1cc(Br)c(NC(=O)c2cccc(C(F)(F)F)c2)cc1NC(=O)c1ccc2nc(NCCN3CCOCC3)sc2c1 | 5.68 |
| CCNC(=O)Nc1nc2ccc(C(=O)Nc3cc(C(=O)Nc4cccc(C(F)(F)F)c4)ccc3C)cc2s1 | 6.93 |
| Cc1ccc(NC(=O)c2cccc(C(F)(F)F)c2)cc1NC(=O)c1ccc2nc(N(C)C(=O)OC(C)(C)C)sc2c1 | 6.02 |

Q: Requested read-out: pIC50. Entry: `Cc1ccnc(Nc2nc3ccc(C(=O)Nc4cc(NC(=O)c5cccc(C(F)(F)F)c5)ccc4C)cc3s2)c1`
Ans: 7.80

Q: Requested read-out: pIC50. Entry: `CCNC(=O)Nc1nc2ccc(C(=O)Nc3cc(NC(=O)c4cc(N5CCN(C)CC5)cc(C(F)(F)F)c4)ccc3C)cc2s1`
Ans: 7.72

Q: Requested read-out: pIC50. Entry: `Cc1ccc(NC(=O)c2cccc(C(F)(F)F)c2)cc1NC(=O)c1ccc2nc(NCCCN3CCOCC3)sc2c1`
Ans: 7.11

Q: Requested read-out: pIC50. Entry: `Cc1ccc(NC(=O)c2cccc(C(F)(F)F)c2)cc1NC(=O)c1ccc2nc(NC(=O)Oc3ccccc3)sc2c1`
Ans: 6.95

Q: Requested read-out: pIC50. Entry: `CNC(=O)Nc1nc2ccc(C(=O)Nc3cc(NC(=O)c4cccc(C(F)(F)F)c4)ccc3C)cc2s1`
Ans: 7.68

Q: Requested read-out: pIC50. Entry: `CCNC(=O)Nc1nc2ccc(C(=O)Nc3cc(NC(=O)c4cccc(Cl)c4)ccc3C)cc2s1`
Ans: 6.98

* * *

system: BaF3; assay: Antiproliferative activity against Lck transformed mouse BaF3 cells after 48 hrs by luciferase assay; assay type: functional, cell-based; conditions: BaF3, 48 h
Entries annotated with measured IC50
Reply numerically in nM, unit not repeated.

Consider the worked cases shown below.
| Chemical structure | Reported measurement |
| --- | --- |
| Cc1cc(C)nc(Nc2nc3ccc(C(=O)Nc4cc(NC(=O)c5cccc(C(F)(F)F)c5)ccc4C)cc3s2)n1 | 53 |
| Cc1ccc(NC(=O)c2cccc(C(F)(F)F)c2)cc1NC(=O)c1ccc2nc(NC(=O)OC(C)(C)C)sc2c1 | 36 |
| Cc1ccc(C(=O)Nc2cccc(C(F)(F)F)c2)cc1NC(=O)c1ccc2nc(NC(=O)NC3CCCC3)sc2c1 | 139 |

Let's switch to this compound now.
Q: Requested read-out: IC50. Entry: `CCNC(=O)Nc1nc2ccc(C(=O)Nc3cc(NC(=O)c4cc(F)cc(C(F)(F)F)c4)ccc3C)cc2s1`
Ans: 7

* * *

system: Jurkat; test: Inhibition of phorbol myristate acetate and ionomycin induced IL2 promoter activity in human Jurkat cells after 5 hrs; format: functional, cell-based
Measured parameter: pIC50
Please report pIC50 as the negative decimal logarithm of the molar concentration, giving only the number.

| Chemical structure | pIC50 |
| --- | --- |
| COCCOC(=O)Nc1nc2ccc(C(=O)Nc3cc(NC(=O)c4cccc(C(F)(F)F)c4)ccc3C)cc2s1 | 6.36 |
| COC(=O)Nc1nc2ccc(C(=O)Nc3cc(NC(=O)c4cccc(C(F)(F)F)c4)ccc3C)cc2s1 | 6.07 |

Q: Lookup: pIC50 / Jurkat / `Cc1ccc(NC(=O)c2cccc(C(F)(F)F)c2)cc1NC(=O)c1ccc2nc(NC(=O)NC3CCCC3)sc2c1`
Ans: 6.09

Q: Lookup: pIC50 / Jurkat / `CCNC(=O)Nc1nc2ccc(C(=O)Nc3cc(NC(=O)c4cccc(C(F)(F)F)c4)ccc3C)cc2s1`
Ans: 6.43

* * *

test system: BaF3; assay: Antiproliferative activity against Lck transformed mouse BaF3 cells after 48 hrs by luciferase assay; format: functional, cell-based; conditions: BaF3, 48 h
Entries annotated with measured IC50
Reply numerically in nM, unit not repeated.

Q: Requested read-out: IC50. Entry: `CCNC(=O)Nc1nc2ccc(C(=O)Nc3cc(NC(=O)c4ccc(C(C)(C)C)s4)ccc3C)cc2s1`
Ans: 12

* * *

tested on: BaF3; experiment: Antiproliferative activity against Lck transformed mouse BaF3 cells after 48 hrs by luciferase assay; type: functional, cell-based; details: BaF3, 48 h
Measured parameter: IC50 (nM)
Reply numerically in nM, unit not repeated.

Consider the worked cases shown below.
| Chemical structure | IC50 [nM] |
| --- | --- |
| Cc1ccc(NC(=O)c2cccc(C(F)(F)F)c2)cc1NC(=O)c1ccc2nc(NC(=O)NC3CCCC3)sc2c1 | 16 |
| CCNC(=O)Nc1nc2ccc(C(=O)Nc3cc(NC(=O)c4cccc(C(F)(F)F)c4)ccc3C)cc2s1 | 16 |
| CCNC(=O)Nc1nc2ccc(C(=O)Nc3cc(NC(=O)c4cc(-n5cnc(C)c5)cc(C(F)(F)F)c4)ccc3C)cc2s1 | 15 |
| Cc1cc(Nc2nc3ccc(C(=O)Nc4cc(NC(=O)c5cccc(C(F)(F)F)c5)ccc4C)cc3s2)no1 | 8 |

Let's switch to this compound now.
Q: Requested read-out: IC50. Entry: `COCCOC(=O)Nc1nc2ccc(C(=O)Nc3cc(NC(=O)c4cccc(C(F)(F)F)c4)ccc3C)cc2s1`
Ans: 8
